target: VEGF-165 (Homo sapiens); construct: purchased ReliaTech GmbH (Wolfenbüttel, Germany); test: Surface plasmon resonance binding of polyphenols to immobilised VEGF165; details: PBST + 1 M NaCl, 37 °C; read-out: KD
Sequence (P15692 27-191 isoform P15692-4 limits assumed): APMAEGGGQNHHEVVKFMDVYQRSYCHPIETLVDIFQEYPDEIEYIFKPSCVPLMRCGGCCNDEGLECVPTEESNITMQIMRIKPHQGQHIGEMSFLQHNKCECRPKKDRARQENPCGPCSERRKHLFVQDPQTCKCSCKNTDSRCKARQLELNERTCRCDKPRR
property name: pKd
On this scale, pKd is minus log10 of a concentration expressed in M (mol/L).

Look up pKd: O=C(O[C@@H]1Cc2c(O)cc(O)cc2O[C@@H]1c1cc(O)c(O)c(O)c1)c1cc(O)c(O)c(O)c1 [Epigallocatechin gallate (EGCG), Epigallocatechin gallate]
7.46

====

Answer each item with its documented pKd.
molecular target: VEGF-165 (Homo sapiens); construct: purchased ReliaTech GmbH (Wolfenbüttel, Germany); test: Surface plasmon resonance binding of polyphenols to immobilised VEGF165; conditions: PBST, 37 °C; read-out: equilibrium constant KD;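 also: running buffer PBST with 1% DMSO, sensorgrams double referenced against a VEGF-free reference cell and blank injections, kinetics fitted to a 1:1 Langmuir binding model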
Reminder that pKd means the negative base-10 logarithm of the concentration expressed in mol/L.

Give recorded pKd with VEGF-165 (Homo sapiens) for the following compound: O=c1c(O)c(-c2ccc(O)c(O)c2)oc2cc(O)c(O)c(O)c12
6.03

Fill in the recorded pKd for this compound, with VEGF-165 (Homo sapiens) as test system: Oc1cc(O)c2c(c1)OC(c1ccc(O)c(O)c1)C(O)C2c1c(O)cc(O)c2c1OC(c1ccc(O)c(O)c1)C(O)C2 (stereo not drawn)
6.20

Fill in the recorded pKd for this compound, with VEGF-165 (Homo sapiens) as test system: Oc1cc(O)c2c(c1)OC(c1ccc(O)c(O)c1)C(O)C2c1c(O)cc(O)c2c1OC(c1ccc(O)c(O)c1)C(O)C2c1c(O)cc(O)c2c1OC(c1ccc(O)c(O)c1)C(O)C2 (stereo not drawn)
6.45

The origin of these recorded values is paper PMC6695681.
